# System: Class-lla HDAC
# EXPERIMENTAL DETAILS: Cell-based deacetylase assay in HT-29 cells, class-IIa selective substrate Boc-Lys-TFA
# MEASUREMENT SETUP: whole-cell assay, 100 μM Boc-Lys-TFA (class-IIa selective substrate), 3 h at 37° C.
pIC50: −log10 of the molar value.
Classification field: enter T for pIC50 values not below 7, F for values below it.

Here are 6 compounds together with their reported answers.
O=C(NC1CCN(Cc2ccccc2F)C1)c1ccc(-c2noc(C(F)(F)F)n2)cc1F (centres unmarked) [NT3-77A] :: F
CN(Cc1ccccc1)C(=O)C(C)(C)CNC(=O)c1cccc(-c2noc(C(F)(F)F)n2)c1 :: F
O=C(NC1CCN(Cc2ccc(F)cc2)C1)c1ccc(-c2noc(C(F)(F)F)n2)cc1F (centres unmarked) [NT3-77C] :: F
C[C@H](CN(C)Cc1ccccc1)NC(=O)c1ccc(-c2noc(C(F)(F)F)n2)cc1F :: T
C[C@H](CN(C)Cc1ccc(F)cc1)NC(=O)c1ccc(-c2noc(C(F)(F)F)n2)cc1 [NT3-11D] :: T
O=C(NC1CCCN(Cc2ccccc2)C1)c1ccc(-c2noc(C(F)(F)F)n2)cc1 (centres unmarked) :: F

INPUT: Reported pIC50 at or above 7? O=C(NC1CCN(CCF)C1)c1ccc(-c2noc(C(F)(F)F)n2)cc1 (centres unmarked)
OUTPUT: F

INPUT: Reported pIC50 at or above 7? CC(C)(CNC(=O)c1ccc(-c2noc(C(F)(F)F)n2)cc1)c1coc(-c2ccccc2)n1
OUTPUT: F

INPUT: Reported pIC50 at or above 7? C[C@H](NC(=O)c1ccc(-c2noc(C(F)(F)F)n2)cc1)C(=O)N1CC[C@H](c2ccccc2)C1 [NT3-52B]
OUTPUT: F

INPUT: Reported pIC50 at or above 7? CN(Cc1ccccc1)C(=O)CCNC(=O)c1cccc(-c2noc(C(F)(F)F)n2)c1
OUTPUT: F

INPUT: Reported pIC50 at or above 7? CCN1CC[C@@H](NC(=O)c2ccc(-c3noc(C(F)(F)Cl)n3)cc2)C1
OUTPUT: F

INPUT: Reported pIC50 at or above 7? O=C(NC1CCN(CCc2ccccc2F)C1)c1ccc(-c2noc(C(F)(F)F)n2)cc1 (centres unmarked) [NT3-102C]
OUTPUT: F

====

IC50 listing for selected compounds.
# Test system: Class-lla HDAC
# EXPERIMENTAL DETAILS: Cell-based deacetylase assay in HT-29 cells, class-IIa selective substrate Boc-Lys-TFA
# MEASUREMENT SETUP: whole-cell assay, 100 μM Boc-Lys-TFA (class-IIa selective substrate), 3 h at 37° C.
Supply the numeric figure in nM, leaving out any unit text.

Some compounds with recorded IC50:
O=C(NC1CCN(Cc2ccccc2F)C1)c1ccc(-c2noc(C(F)(F)F)n2)cc1 (stereo not drawn) [NT3-132B] :: 300
C[C@@H](NC(=O)c1ccc(-c2noc(C(F)(F)F)n2)cc1)C(=O)NCc1ccccc1 :: 953

INPUT: Give the measured IC50 of O=C(NC1CCN(Cc2ccc(I)cc2)C1)c1ccc(-c2noc(C(F)(F)F)n2)cc1 (stereo not drawn) .
OUTPUT: 295

INPUT: Give the measured IC50 of COC[C@@H](NC(=O)c1ccc(-c2noc(C(F)(F)F)n2)cc1)C(=O)NCc1ccc(F)cc1 .
OUTPUT: 233
